Each recorded value in this set is attributed to the supplement of paper PMC12455559.

This listing pairs sequences with measured PET hydrolysis.
assay: PET hydrolysis, aromatic products released after 48 h (umol product/mg enzyme); higher = more PET depolymerization activity; conditions: substrate: aFilm; 40 °C; pH 4.5

{"monomer-sequence": "QAPDRTALARTGPYQVAYYTQLPPAAEFSAATLFFPANKAQAFGGVVIAPGYTEKQVNVQWWGYHLASHGYAVLVLDTNDPEEYPDRRADALMAGVAVLRGENTRMGSTLRGKILEGRIALMGHSMGGGGTLLAANGHSDQLKTIIPFTPWLPGADFSAVSVPTLVLAGEIDRIAAVKDHAWPHYESLTGAVPRMYLEVKGGNHYIANSMTDREDRNPNIDVHDLVGSMVVAWLKTFLDDDESYRELVFGDLPEADRVRISRLEFVE [TEP006]", "PET hydrolysis": "< 3"}
{"monomer-sequence": "MAADNPYQRGPNPTSASVAASRGTFATAELSVPRGNGFGGGKIYYPTDTTQGTFGAIAIVPGYTATWAAEGAWMGHWLASFGFVVIGIDTNSRNDNDTARGTQLLAALDYLTQRSSVRGRVDAKRLAVMGHSMGGGGALVAARQRPSLKAAVGLAPFKPSGPPSADRVPTMVIAGQRDGTVTPSYVDGLYRAIPAGTEKAYLEFAGAGHAFPTRPNPLQMRLVIPWLKSFTDHDTRYHQFLCPLKDRTGVTAYRSTCPLVAPGARD [TEP041]", "PET hydrolysis": "< 3"}
{"monomer-sequence": "ADNPYQRGPDPTRTSVAAVNGPFANTSVSVPTGYGFNGGRIYYPTDTSQGTFGAIAISPGYTALFSAELAWMGPWLASHGFVVIGIETNSRNDFDTARGTQLLAALDYLTQQSPVRDRVDPNRLAVSGHSMGGGGALSAAIRRSSLKAVVGIAPYSPSSNLANDRVPTMIFSGQADTVVTPSYATGLYNSLPATTESVYLEVAGADHGFMVGRSNPVMIRTMLPFVKMFIDNDTRYSQFLCPLLDSSGVVTYRSTCPLLPPAPTTPPPTGTPTPTPSSNPTTPPTTPPSTPTA [ESM061]", "PET hydrolysis": "< 3"}

---

assay: purified protein yield per well (BCA); higher = higher soluble expression

{"monomer-sequence": "VQIGPAPTSAALNKDGTFSVSSTSVSSLSARGFGGGTIYYPTTAGQYGVIAVCPGYTGTSSSISWFARRLATHGFVTIAMNTTTTLDQPDSRATQLAAALKCVLSNSTVKSRIRSTDRGVAGHSMGGGGTLIASQSDSSLRVGIPMTPWNLSTNFSAVKVPQMIFGADGDTIAPYASHARPFYNSINKTQKAYGLLKSATHFTPNSTDQRIGRYGVAFAKRFVDGDTRYSAFLCGAEHSSYATSSKFATYLSNCPY [ESM154]", "purified protein yield per well": "< 25 µg"}
{"monomer-sequence": "CGDRDAGDPAPTESSLTAPLGPEKYRTEVVPRAYVEAFGGGTIYYPAGRPPGERLGAVTIVPGSRGYQSGMAWYGPLLASRGFIVFTIDTLHLKDQPAKRSLELEAALTYLATRSAVASHVDAERLAVMGHSLGGGGTLDLAATRPNLKAAIPLMPYDKAKDFSNVRVPTLVVAAQHDKIAPVGKHAEVFYRSIPASQPKAYLEIAGATHSFPKRRDATLAKYVIAWLKRYVDGDKRYDRFLCPGPQNDPHVARYASDCTPR [DP095]", "purified protein yield per well": "< 25 µg"}
{"monomer-sequence": "APDTVVGNPFARGPDPTKESIEAERGPFAVATEKVPGGKGFGGGTIHYPTDTSQGTFGAIAVAPGFTESESAIAWYGPRLASQGFVVITISTNGLWDLPASRADQLLAALRHVTDASQIKSRVDRDRLAVMGHSMGGGGSLIAARNNPALKATIPLTGWNPNTSFSDLKVPTFVVSAQNDFIAPDGSHSRPFYQSLPASLNKAYMRLAGVGHMAPVNPNVTIAKYSISWLKRFVDNDTRYSQFLCPLPTGDPKIAAYEGTCPLS [DP008]", "purified protein yield per well": "67 µg"}

---

assay: PET hydrolysis, aromatic products released after 48 h (umol product/mg enzyme); higher = more PET depolymerization activity; conditions: substrate: cryPow; 40 °C; pH 6.5
assay-endpoint: PET hydrolysis

{"monomer-sequence": "AENPYQRGPDPTLAALAASAGPYPIMETVVGSAEVTNFGGASIYYPAGTADGTFGGVAVTPGFLGPRSTMEWVARRVASHGFVVINIDTLERNDTPPLRARQMLAALDYLTGASAVRDRVDPTRLAVMGHSMGGGGSLQASRQRPQLKAAVPLTPWSNDKDFSADVVPTLIIGAELDDTAPVAEHAEPFFESIAAARKAYLELNDAEHRAPIRTNETIGTYSVAWLKRFVDDDTRYEQFLCPPPAPSAAIEEFRGTCPSS [TEP106]", "assay-endpoint": "PET hydrolysis", "sign": "<", "numeric-result": 3}
{"monomer-sequence": "ADNPYQRGPDPTPQSISAPTGPFATASVTVPRQGNFGGGVIYYPTDTSQGTFGAVAISPGLNGTWPGIAWLGPRLSSQGFVVFGIDTLGLSDSTASRGSQLLAALDYLTQTSSVRTRVDSSRLAVAGHSMGGGGAFEAALRRPALKAAIPNAPFFPGSASNVRVPTLITAMQNDSLVGQNRNAYNGIPAGVEKAYVELAGAGHNQIGQPTTAIARNWIPWLKIFVDSDARYHQFLCPTTDMSGLSQYLNTCPLISTTPPTSSPSAQPTTPGPTGPPPGGACAATYRTVNSWSDGYQGEMTVQAGSSAINGWTVRWTMSGGQTISQVWNGTLVAGSGAAAVRNVAYNGSLAAGASTTFGFISSGTPSATSITCGSP [ESM081]", "assay-endpoint": "PET hydrolysis", "sign": "=", "numeric-result": 45}
{"monomer-sequence": "DQIGQAPTASNITGNGSFATTSASISSTVSGFGGGRVYYPTAAGTYPVIAISPGFTATWSSLAWIGPRLSSWGFVVVGIETNSIYDQPASRGNQLLAALNWAVNSSPTAVRSHVDGSRRGVAGHSMGGGGTLEALAADTTGLVKAGVPLAPWNTDKTWNNVSEPVLIVGGQADTVAPVASHSIPFYNTLAGPKTYVELTGQSHFFPQTTNATASRALVAWFKRWVSQDSRFTPFTCGFSGVAVSDFRSNAC [ESM082]", "assay-endpoint": "PET hydrolysis", "sign": "=", "numeric-result": 29}

---

This listing pairs sequences with measured PET hydrolysis.
experiment: PET hydrolysis, aromatic products released after 48 h (umol product/mg enzyme); higher = more PET depolymerization activity; details: substrate: aFilm; 40 °C; pH 6.5
assay-endpoint: PET hydrolysis

{"monomer-sequence": "AGFEKGPDPTTASVTADRGSYDIAQVDVPKGSGTGFADGTIYYPKSTADGTFGAVAVIPGFLEPKSAIDWYGPRLASQGFVVMTLDTTSVFDTPDSRGGQLLAALDYLTSKSTVKDRIDPNRLAVVGHSMGGGGTLSAAANRPNLKAAVALAPWHVSAPLTSVKTPTMIFGSDNDFIAPDGTFAKPFYDGISNAPEKAYVRLKNAGHMAYVFPDKRIAEYTLSWLKRYVDDDTRYTQFLCPGPTNESTIAAYKSTCPM [DP093]", "assay-endpoint": "PET hydrolysis", "result": "< 3"}
{"monomer-sequence": "ADNPYQRGPDPTPASVGASRGTFATAQVSVPAGNGFGGGVIYYPTDTSQGRFGAVAVVPGYTATWAAEGAWMGPWLASFGFVVIGIDTNSRNDWDTARGTQLLAALDYLTQRSSVRDRVDASRAAVMGHSMGGGGAIYAALQRPSLKTTVGLAPFSASQTLNNMRVPTMLLAGQNDGTTTPASIRNYYGQVPSGVEKAYLELTGAGHGFPTSNNPTMMRNVIPWLKIFVDSDTRYTQFLCPLSNTNGIRSYESTCPLVPSPVPTDPPTSAPPTSTPPTTPPPTTPPPTTPAPGGPCAASYRTVNSWSGGFQGEVTVRAGGAPINGWTVRWTLGGGQSISQVWNGTLSTSGSTATVRNAPYNGSLPASGSTTFGFIANGSPSAPTLTCASP [TEP013]", "assay-endpoint": "PET hydrolysis", "result": "< 3"}
{"monomer-sequence": "AVHGPDPTDALLEASRGPYATAQIDVSALAVSGFGGGTIYYPTTTSEGTFGGVAIAPGYTADKSSLAWLAARLASHGFVVFNIDTLTRLDQPDSRGRQLLAALDYLTQRSSVRSRVDASRLGVMGHSMGGGGTLEAAVSRPSLRAAVPLTPWNLDKTWPEVRTPTLIIGADLDTIAPVLTHAEPFYASLPSTLDKAYLELNNATHFAPNITDTTIGKYAVAWMKRFIDDDTRYNRFLCPGPSWSLSVEEYRSTCPF [TEP061]", "assay-endpoint": "PET hydrolysis", "result": "< 3"}
{"monomer-sequence": "ADNPYQRGPDPTPASVAAVNGPFATASVSVPAGYGFGGGMIYYPTDTSQGTFGGIAISPGYTALFSAELAWMGPWLASHGFVVIGIETNSRNDFDEARGTQLLAALDYLTQQSPVRTRVDPNRLAVSGHSMGGGGALNAAIRRPSLKAAVGLAPFLPSSNLANDRVPTMVFAGQQDTVVSPSYVTNLYNSLPATTESAYLEIAGGDHGFPVGRPNQVMIRTMLPFVKIFLDNDTRYSQFLCPLMDSTGVVTYRSTCPLLPPGLPTTPPTSTSSNPTVGPTTPSTTAPTTTPAPGGACTATYRTTNSWPGGFQGEVTITAGSSAINGWTVRWTLGSGQTISQVWNGEVSITGSTVSVRNAPYNGSLPASGSTTFGFLGGGSPSSPSLTCTSP [TEP165]", "assay-endpoint": "PET hydrolysis", "result": 2}
{"monomer-sequence": "QYQKGPDPTVSALERTGSFATRTTTVSRTSASGFGGGTIYYPTASGSYGAIAISPGFTAYQSSISWMGTRLASHGFVVITIDTITTSDQPDSRGRQLKAALDKVVSLSRSSSSPIYNKVDTTRLAVAGHSMGGGGTLAAARDYPSLKAAVPLAPWHTTKSWSRVTVPTLIIGGSTDTIASVGLHSIPFYTSLPSSTNKAYMELSGEGHFFPQTSSNYPLVGRYMISWFKRFVDGDSRYSPFLCGAQHQADLGLFSDISDYRENCPY [ESM169]", "assay-endpoint": "PET hydrolysis", "result": 10.5}
{"monomer-sequence": "MSNPYQRGPNPTRSALTADGPFSVATYTVSRLSVSGFGGGVIYYPTGTSLTFGGIAMSPGYTADASSLAWLGRRLASHGFVVLVINTNSRFDGPDSRASQLSAALNYLRTSSPSAVRARLDANRLAVAGHSMGGGGTLRIAEQNPSLKAAVPLTPWHTDKTFNTSVPVLIVGAEADTVAPVSQHAIPFYQNLPSTTPKVYVELCNASHIAPNSNNAAISVYTISWMKLWVDNDTRYRQFLCNVNDPALCDFRTNNRHCQLEHHHHHH [LCC-ICCG]", "assay-endpoint": "PET hydrolysis", "result": 38.1}
{"monomer-sequence": "AANPYERGPAPTAASIAATTGPFAVASVSVPRGNGFGGGVIYYPTSTSQGTFGGVAISPGLNGTWAGIAWLGPRLASQGFVIFGIETNNLNDSPASRGTQLLAALDFLTRSSSVRTRVDASRLAVAGHSMGGGGALSAALQRPSLQAAIGNAPHLPSGSLATDRVPTLIYAMQNDTLVTPSRLTSLYNSMPATTERAYIEVAGAGHNYIGQPSTTLARTMIPWLKIFVDNDARYSQFLCPLSNQSGISQYRNSCPLISTTTLSTGVDSTSGLAVR [ESM157]", "assay-endpoint": "PET hydrolysis", "result": "< 3"}
{"monomer-sequence": "ADNPYQRGPNPTAASIAATTGPFAIASVSVARGNGFGGGVIYYPTDTSQGTFGAIAISPGLNGTWPGIAWLGPRLASQGFVVFGIETNNLNDSPTSRGTQLLAALDYLTQRSSVRTRVDATRLAVAGHSMGGGGALDAALRRPSLQAAIGNAPYLPSGNLSTDRVPTLIYAMQNDTLVPPSRLTTMYNTIPATTERGYIQITGAGHNYIGQPSTNLARTMIPWFKIFIDNDTRFSQFLCPLSNMSGISQYRNSCPLI [ESM159]", "assay-endpoint": "PET hydrolysis", "result": "< 3"}
{"monomer-sequence": "AGNPYQRGPDPTLASVAASRGTFATAQVSVPAGNGFNGGTIYYPTDSSQGTWGAVAIVPGYTALFANEEAWMGPWLASFGFVVIGIETNSRTDFDTARGTQLLAALDYLTQKSPVRDRVDSARLGVIGHSMGGGGVVYATEHRPSLKAAVALAPFSPSQDMSTDHVPTMVMGGQNDTVVTPSYLDGLYATMPASTQSDFVQLAGADHVAYTHPNTTEMRLLIPWLKIFLDDDTRYTQFLCPLMDSTGVSAYHSKCPYVPPGGSTSTPTPTPTITPTPPPSGACSATYRTVNSWSGGYQGEVTVTAGDAAINGWTVRWNLGGGQTVTQVWNGTLSTSGSTATVTNASYNGSLQASASTTFGFLANGTPSTPAITCTSP [TEP114]", "assay-endpoint": "PET hydrolysis", "result": "< 3"}
{"monomer-sequence": "EEPASGYQRGPAPTTSSIESSRGPFSTSQVSISGLSANGFGGADVYYPTDTSQGTFGAVAISPGYTARKSSMAWLASRLASQGFVVINIDTNTTSDQPASRGRQLLAALDQVTKDSRVANRIDPTRLAVVGHSMGGGGALEASRSRPSLQAAIPLTPWNTTKSFSGNQVPTLVVGAERDTVASVRSHAEPFYRSLPSAPGKAYLELAGASHFAPNTSNTTIAKHSIAWLKLFVDNDERYRQFVCPGPTSDRAVSDYQNTCSSFTP [DP053]", "assay-endpoint": "PET hydrolysis", "result": "< 3"}
